pKi: −log10 of the molar value.
Data export: pKi values recorded with Adenosine receptor A2a (Homo sapiens).
Sequence (P29274 whole entry): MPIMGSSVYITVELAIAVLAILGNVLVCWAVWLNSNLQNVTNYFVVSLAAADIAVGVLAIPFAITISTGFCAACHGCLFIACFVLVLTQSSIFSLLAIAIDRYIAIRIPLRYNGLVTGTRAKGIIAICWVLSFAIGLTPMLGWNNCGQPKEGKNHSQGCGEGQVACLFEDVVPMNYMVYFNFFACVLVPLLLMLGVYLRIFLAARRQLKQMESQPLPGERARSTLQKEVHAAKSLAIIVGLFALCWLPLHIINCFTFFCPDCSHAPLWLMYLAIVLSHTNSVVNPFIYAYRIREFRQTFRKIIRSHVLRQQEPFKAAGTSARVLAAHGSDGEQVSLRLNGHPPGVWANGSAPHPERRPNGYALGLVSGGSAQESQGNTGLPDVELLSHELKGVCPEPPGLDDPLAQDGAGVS
measuredProperty: pKi

• O=C(CCc1ccccc1)Nc1nc(-c2ccccc2)n[nH]1 = 5.47
• Cc1cccc(OCC(=O)Nc2nc(-c3ccccc3)n[nH]2)c1 = 5.70
• Cc1ccc(C(=O)Nc2nc(-c3ccccc3)n[nH]2)cc1 = 6.52

I. Cc1ccc(O[C@H](C)C(=O)Nc2nc(-c3ccccc3)n[nH]2)cc1
II. COc1ccccc1NC(=O)Nc1nnc(-c2ccccc2)[nH]1
III. Cc1cccc(-c2n[nH]c(NC(=O)[C@@H](C)Oc3ccccc3)n2)c1
Q: Could you please sort these 3 entries by pKi from high to low? Your answer should be the labels, listed in the requested order.
A: II, III, I

a. O=C(Nc1nc(-c2ccccc2)n[nH]1)C1CCCO1 (stereo unspecified)
b. Cc1cccc(O[C@H](C)C(=O)Nc2nnc(-c3ccccc3)[nH]2)c1
Q: Just curious, which one has the larger pKi reading, a or b ? // return label of chosen record
A: b

---

Data export: Ki values recorded with Adenosine receptor A3 (Homo sapiens, UniProt P0DMS8).
Sequence (P0DMS8 whole entry): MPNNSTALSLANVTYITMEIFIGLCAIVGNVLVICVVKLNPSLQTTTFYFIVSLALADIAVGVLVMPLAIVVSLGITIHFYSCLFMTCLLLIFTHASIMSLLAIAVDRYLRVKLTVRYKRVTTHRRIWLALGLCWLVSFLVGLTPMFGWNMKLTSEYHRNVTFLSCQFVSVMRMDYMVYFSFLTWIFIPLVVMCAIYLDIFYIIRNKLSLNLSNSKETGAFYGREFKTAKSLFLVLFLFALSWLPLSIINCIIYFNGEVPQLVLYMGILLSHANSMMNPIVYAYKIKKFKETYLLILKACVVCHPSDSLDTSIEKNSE
Report as a plain number; the unit nM is understood.

Some compounds with known Ki results, for comparison:
- O=C(COCc1ccccc1)Nc1nc(-c2ccccc2)n[nH]1: 4600
- O=C(Nc1nnc(-c2ccccc2)[nH]1)c1ccccc1: 300

Okay, now this compound:
Q: Output measured Ki for this item: Cc1ccc(C(=O)Nc2nc(-c3ccccc3)n[nH]2)cc1
A: 100

---

- tgt: Adenosine receptor A2b (Homo sapiens)
- Sequence (whole entry): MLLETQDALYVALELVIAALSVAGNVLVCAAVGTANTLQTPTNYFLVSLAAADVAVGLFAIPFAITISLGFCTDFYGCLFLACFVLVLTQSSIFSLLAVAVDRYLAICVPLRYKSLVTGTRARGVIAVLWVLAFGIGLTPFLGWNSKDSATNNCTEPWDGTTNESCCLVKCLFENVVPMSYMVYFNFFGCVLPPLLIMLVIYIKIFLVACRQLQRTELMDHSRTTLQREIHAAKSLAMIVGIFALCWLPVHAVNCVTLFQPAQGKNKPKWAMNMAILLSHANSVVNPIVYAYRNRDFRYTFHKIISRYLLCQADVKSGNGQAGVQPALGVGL
- protocolNotes: Antagonist activity at human A2B adenosine receptor expressed in CHO cells assessed as inhibition of NECA-induced cAMP accumulation at 10 uM after 20 mins
- Type: functional, cell-based
measuredProperty: inhibition (%)

Some molecules with known inhibition results, for comparison:
• C[C@@H](Oc1cccc(Cl)c1)C(=O)Nc1nc(-c2ccccc2)n[nH]1 = 28
• CC[C@@H](Oc1ccccc1)C(=O)Nc1nc(-c2ccccc2)n[nH]1 = -9

1. C[C@@H](Oc1ccccc1)C(=O)Nc1nc(-c2ccccc2)n[nH]1
2. COc1ccccc1C(=O)Nc1nc(-c2ccccc2)n[nH]1
Q: Just curious, which one has the larger inhibition reading, 1 or 2 ? // return label of chosen record
A: 1
(1: 23%, 2: 16%)

---

Recorded Ki, one value per entry.
- tgt: Adenosine receptor A2a (Homo sapiens)
- protocolNotes: Displacement of [3H]CGS21680 from human A2A adenosine receptor expressed in HEK293 cells after 60 mins by liquid scintillation counting
- Type: cell-based
Report as a plain number; the unit nM is understood.

- C[C@@H](Oc1ccccc1)C(=O)Nc1nc(-c2ccccc2)n[nH]1: 1000
- O=C(COCc1ccccc1)Nc1nc(-c2ccccc2)n[nH]1: 5000

Okay, now this compound:
Q: Find Ki for CC[C@@H](Oc1ccccc1)C(=O)Nc1nc(-c2ccccc2)n[nH]1 on Adenosine receptor A2a (Homo sapiens) and write it down.
A: 1400
